meta.source: the supplement of paper PMC9112550

Answer each item with its documented shrunken log2 fold change.
# Test system: Escherichia coli TOP10;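 further: peptides expressed intracellularly from a pBAD plasmid library in pooled LB shake-flask culture, induced with 0.3% L-arabinose, DNA abundance read by NGS, three biological replicates, DESeq2 with apeglm shrinkage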
# TEST DESCRIPTION: shrunken log2 fold change of peptide-encoding DNA abundance (4.5 h post-induction vs induction); higher = less antimicrobial activity (less host growth inhibition)
# EXPERIMENTAL PARAMETERS: time post-induction: 4.5 h; library: site-saturation at positions 5, 18, 19, 20
Give the figure by itself; no unit, no explanation.

In: Entry under review: RRIRQRPPRLPRPRPRPQNDPRP . Reported shrunken log2 fold change?
Out: 0.119

In: Here is the next sequence: RRIRARPPRLPRPRPRPRGVPRP
Out: 0.682

In: Try this sequence too: RRIRNRPPRLPRPRPRPVPEPRP
Out: 0.61

In: // query: RRIRKRPPRLPRPRPRPSKCPRP
Out: -0.388

In: Follow-up entry: RRIRTRPPRLPRPRPRPVHQPRP
Out: -0.022

In: Lookup RRIRQRPPRLPRPRPRPHWQPRP
Out: -0.147

In: Moving on to the next sequence: RRIRLRPPRLPRPRPRPTCLPRP
Out: -0.255

In: Follow-up item: RRIRPRPPRLPRPRPRPPCLPRP
Out: -0.153
